ASSAY_TARGET: T1, full length human Shh expressed on the cell surface (human, UniProt Q15465 24-462)
T1 construct: whole, on cells; also called native human Shh; Shh-FL
ASSAY_OVERVIEW: flow cytometry, transfected against parental 293T cells
ratio for assorted binders

{"BINDER": "1G12 (antibody, V domains shown, fully human XenoMouse hybridoma antibody; tested as hybridoma supernatant and as purified antibody; also called MAb 1G12) VH: QVQLVESGGGVVQPGRSLRLSCAASGFTFSTYGMHWVRQAPGKGLEWVAVIWYDGSNKYYADSVNGRFTISRDNSKNTLYLQMNSLRGEDTAVYYCARDLYYYGSGSPFDYWGQGTLVTVSS VL: EIVMTQSPATLSVSPGERVTLSCRASQSVSSNLAWYQQKPGQAPRLLIYGVSIRATGIPARFSGSGSGTEFTLTISSLQSEDFAVYYCQQYDNWPRPGFGGGTKVEIK", "ratio": 2.2}
{"BINDER": "1A5 (antibody, V domains shown, fully human XenoMouse hybridoma antibody; tested as hybridoma supernatant and as purified antibody; also called MAb 1A5) VH: EVQVVESGGDLIQPGGSLRLSCVASGFTVSSNYMNWVRQAPGKGLEWVSVIYSGGNTYYADSVKGRFTISRDNSKNTLYLQMNSLRAEDTAVYYCARDSSVVVGLGYFDLWGRGTLVTVSS VL: SYELTQPPSVSVSPGQTASITCSGDKLGANYASWYQQKPGQSPVLVIFQDTKRPSGIPERFSGSNSGNTATLTISGTQAMDEADYYCQAWDFSTVIFGGGTKLTVL", "ratio": 70.5}
{"BINDER": "4B6 (antibody, V domains shown, fully human XenoMouse hybridoma antibody; tested as hybridoma supernatant and as purified antibody; also called MAb 4B6) VH: QVQLVESGGGVVQPGRSLRLSCAASGFTFSTYGMHWVRQAPGKGLEWVAVIWYDGSNEYYADSVKGRFTISRDNSKNTLYLQMNSLRAEDTAVYYCARDLYYYGSGSPFDYWGQGTLVTVSS VL: EIVMTQSPATLSVSPGERATLSCRASQSVSSNLAWYQQKPGQAPRLLIFGISIRATGIPARFSGSGSGTEFTLTISSLQSEDFAVYYCQQYNDWPRPGFGGGTRVEIK", "ratio": 50.2}
{"BINDER": "1C8 (antibody, V domains shown, fully human XenoMouse hybridoma antibody; tested as hybridoma supernatant and as purified antibody; also called MAb 1C8) VH: EVQLVESGGGLIQPGGSLRLSCAVSGFTVSSNCMNWVRQAPGKGLEWVSVIYSGGKTAYADSVKGRFTISRDNSKNTLCLQMNSLRAEDTAVYYCARDSSMVVGLGYFDLWGRGTLVTVSS VL: SYELTQPPSVSVSPGLTASITCSGDKLGYKYASWYQQKPGQSPVLVIYQDIKRPSGIPERFSGSNSGNTATLTISGTQAMDEADYYCQAWDSSTVVFGGGTKLTVL", "ratio": 33.3}
{"BINDER": "1A12 (antibody, V domains shown, fully human XenoMouse hybridoma antibody; tested as hybridoma supernatant and as purified antibody; also called MAb 1A12) VH: QVYLVESGGGVVQPGRSLRLSCAASGFTFSSYGMHWVRQAPGKGLEWVAVIWYDGSNEYYADSVKGRFTISRDNSKNTLYLQMNSLRAEDTAVYYCARDLYYYGSGSPFDYWGQGTLVTVSS VL: EIVMTQSPATLSVSPGERATLSCRASQSVSSNLAWYQQKPGQAPRLLIFGVSIRATGIPARFSGSGSGTEFTLTISSLQSEDFAVYYCQQYNDWPRPGFGGGTKVEIK", "ratio": 78.1}

Assign ratio to the following record: 1H10 (antibody, V domains shown, fully human XenoMouse hybridoma antibody; tested as hybridoma supernatant and as purified antibody; also called MAb 1H10) VH: QVQLVESGGGVVQPGRSLRLSCAASGFTFSSYGMHWVRQAPGKGLEWVAVIWNDGSNEYYADSVKGRFTISRDNSKNTLYLQMNSLRAEDTAVYYCARDLYYYGSGSPFDDWGQGTLVTVSS VL: EIVMTQSPGTLSVSPGERATLSCRASQSVGSNLAWYQQKPGQAPRLLIFGVSIRATGVPARFSGSGSGTEFTLTISSLQSEDFAVYYCQQYNDWPRPGFGGGTKVEIK
40.9

Query ratio for 1H12 (antibody, V domains shown, fully human XenoMouse hybridoma antibody; tested as hybridoma supernatant and as purified antibody; also called MAb 1H12) VH: QVQLVQSGAEVKKPGASVKVSCKASGYTFTGYYMHWVRQAPGQGLEWVGWFNPNSGGTNCAQKFQGRVTMTRDTSISTAYMELSRLRSDDTAVYYCAREAVESYYYGLDVWGQGTTVTVSS VL: QSVVTQPPSASGTPGQRITISCSGSSSNIGSNYVYWYHQLPGSAPNLLIYRNNQRPSGVPDRFSGSKSGTSASLAISGLRSEDEADYFCAVWDDSLRGVVFGGGTKLTVL
9.1
